Target: Hexose transporter 1 (Plasmodium falciparum)
Assay: ST_JUDE_LEISH: Cytotoxicity at 2uM final concentration against transgenic Leishmania Mexicana promastigotes LmPfHT that are glucose transport deficient and complemented with the Plasmodium falciparum hexose transporter. Activity is measured by DNA content using SYBR green in vitro
Assay type: functional
Kindly return Met if reported inhibition is no lower than 8%; return Not met if it is lower.

# molecule, classification
records = [
    ("Clc1ccc(C=NN=c2cc[nH]c3ccccc23)cc1", "Met"),
    ("COc1ccc(CN2CCC(CN3CC4(OC3=O)c3ccccc3-c3ccccc34)C2)c(O)c1 (stereo not given)", "Met"),
    ("Cc1cc(Nc2cccc(C(F)(F)F)c2)nc(NCc2ccccc2)n1", "Met"),
    ("Cc1cccc(C)c1OC(=O)C(C)C(O)C1(Sc2ccccc2)CCN(C)CC1 (stereo not given)", "Not met"),
    ("O=C(c1ccco1)N1CCN(c2nc(-c3ccc(Cl)cc3)nc3ccccc23)CC1", "Not met"),
]
